# experiment: growth inhibitors of tim10-1 mutant yeast, primary screen, luminescence, uHTS (AID 463190);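 note: mutant grown at 25 °C; 0% = DMSO wells with yeast and 100% = wells holding no yeast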
# experimental.conditions: S. cerevisiae tim10-1 ts strain growth, BacTiter-Glo, 24 h; at 20 µM; hits give high values
Screen size: about 330,000 compounds; about 7,300 (2.2%) were called active. This excerpt belongs to a sample that is enriched for actives.
reported.endpoint: inhibition (%)
Answers are plain numbers, in %.

Consider the following illustrative entries.
Cc1nc(-c2ccc(Cl)cc2)sc1C(=O)NN; -3.83
Cn1c(SCC(=O)Nc2cccc(NC(=O)c3cccs3)c2)nnc1-c1ccncc1; -9.32
Cc1ccc(S(=O)(=O)Nc2ccc3ncccc3c2)cc1; 18.6
COc1ccc(S(=O)(=O)N2CCN(CC(=O)N3CCOCC3)CC2)cc1OC; -6.09
C/C=C(/C)C(=O)O[C@@H]1c2cc3c(c4c2[C@@]2(CO4)C(=O)C(OC)=C(OC)C=C2C[C@@H](C)[C@H]1C)OCO3; 13.3
Cc1cccc(NC(=S)Nc2ccc(Cl)c(Cl)c2)c1; 49.9
CCCN(CCC)c1c([N+](=O)[O-])c(=O)oc2ccccc12; 11
CN(C(=O)COc1nnc(-c2cccs2)c(-c2cccs2)n1)c1ccccc1; 46.6
N/C(=N\OC(=O)CCC1CCCCC1)c1ccccn1; 47.6
N/C(=N\OC(=O)CC1CCCCC1)c1ccccc1; 49.3

Parameters: items (list). Returns: inhibition for each item.
1. CCOc1ccc(NC(=O)C2CC(=O)N=C(N)S2)cc1 (stereo not drawn)
2. COc1ccc(/C=C2/C(=O)N(c3ccccc3)N=C2C)c(OC)c1
3. Cc1cc(C(=O)Nc2c(C)nn(Cc3ccccc3)c2C)on1
4. CCc1cccc(C)c1NC(=O)COC(=O)CC1CCCC1
5. COc1cc(/C=C/C2=CC(C)(C)NC(=S)N2)cc(OC)c1OC
6. COc1ccc(CN(C)C(C)C(=O)NC2CCCc3ccccc32)cc1 (stereo not drawn)
7. N/C(=N\OC(=O)c1ccc([N+](=O)[O-])cc1)c1ccccn1
8. Cc1nn(Cc2ccc(F)cc2)c(C)c1NC(=O)c1cccnc1Cl

## Output
1. 3.69
2. 28.4
3. 1.72
4. 2.51
5. 16.4
6. 23.2
7. 37.6
8. -0.56

Parameters: items (list). Returns: inhibition for each item.
1. Cc1cccc(NC(=S)NC23CN4CN(CN(C4)C2)C3)c1
2. Cc1cccc(NC(=S)Nc2ccc3cn[nH]c3c2)c1
3. CCOc1ccc(C(CC(=O)O)NC(=O)Cc2ccccc2)cc1OC (stereo not drawn)
4. COc1cc(NS(=O)(=O)c2ccc3ccccc3c2)c2ncccc2c1
5. O=C(COC(=O)CCOc1ccccc1)Nc1cc(S(=O)(=O)N2CCCCC2)ccc1Cl

## Output
1. 10
2. 15.4
3. -13.2
4. 40.5
5. 46.3

###

# experiment: growth inhibitors of tim10-1 mutant yeast, primary screen, luminescence, uHTS (AID 463190);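 note: mutant grown at 25 °C; 0% = DMSO wells with yeast and 100% = wells holding no yeast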
# experimental.conditions: S. cerevisiae tim10-1 ts strain growth, BacTiter-Glo, 24 h; at 20 µM; hits give high values
About 7,300 (2.2%) of roughly 330,000 compounds were called active. The entries come from a sample that favours actives as a whole.
reported.endpoint: inhibition

Consider the following illustrative entries.
Cc1cc(/C=N/NC(=O)CC2(C)OCCO2)c(C)n1-c1ccc(Cl)c(Cl)c1; 1.86% (inactive)
COc1ccccc1/C=C/C1=NC(=C\N(C)C)/C(=O)O1; 21% (inactive)
O=C1OC(/C=C/c2ccccc2)=NC/1=C/c1ccco1; 45.5% (active)
CCOC(=O)c1ccc(N=C2SC(C(=O)NC)CC(=O)N2CCc2ccccc2)cc1 (stereo unspecified); 8.86% (inactive)
COC(=O)[C@H](C(C)C)n1c(C)c(C(C)=O)c(C(C)=O)c1C; 0.67% (inactive)
O=c1cnnc(Nc2ccccc2F)[nH]1; -10.8% (inactive)
Cc1ccc(S(=O)(=O)N2CCN(C(=O)CSc3cc(C)ccc3C)CC2)c(C)c1; 23.1% (inactive)
Cc1ccccc1C1=N/C(=C/c2cccnc2)C(=O)O1; 31.3% (inactive)

Parameters: items (list). Returns: inhibition for each item.
1. O=c1[nH]n(-c2ccc([N+](=O)[O-])cc2)c(=O)c2ccccc12
2. C=CCn1c(COc2ccc(F)cc2)nnc1SCC(=O)Nc1cccc(S(N)(=O)=O)c1

## Output
-4.91% (inactive)
-3.82% (inactive)

## Input // inhibition lookup, key: CC(C)CCN1CCC(C)(NC(=O)c2ccccc2)C1=O (stereo unspecified)
## Output 10.4% (inactive)
